conditions: in ethanol, 318.15 K
Measured Parameter: solubility (mole fraction)

> print(dat)
                           smiles.entry  recorded.number
1  Cl.OC(CCCN1CCCCC1)(c1ccccc1)c1ccccc1          0.00706

###

conditions: in n-pentanol, 293.15 K
Measured Parameter: solubility (mole fraction)

> print(dat)
                           smiles.entry  recorded.number
1  Cl.OC(CCCN1CCCCC1)(c1ccccc1)c1ccccc1          0.00075

###

conditions: in water, 293.15 K
Measured Parameter: solubility (mole fraction)

> print(dat)
                           smiles.entry  recorded.number
1  Cl.OC(CCCN1CCCCC1)(c1ccccc1)c1ccccc1          0.00125

###

conditions: in DMAc, 283.15 K
Measured Parameter: solubility (mole fraction)

> print(dat)
                           smiles.entry  recorded.number
1  Cl.OC(CCCN1CCCCC1)(c1ccccc1)c1ccccc1          0.00221

###

settings: in acetonitrile, 318.15 K
Measured Parameter: solubility (mole fraction)

> print(dat)
                           smiles.entry          measured.parameter  recorded.number
1  Cl.OC(CCCN1CCCCC1)(c1ccccc1)c1ccccc1  solubility (mole fraction)         0.000892

###

settings: in n-propanol, 293.15 K
Measured Parameter: solubility (mole fraction)

> print(dat)
                           smiles.entry  result
1  Cl.OC(CCCN1CCCCC1)(c1ccccc1)c1ccccc1  0.0025

###

details: in n-butanol, 323.15 K
Measured Parameter: solubility (mole fraction)

> print(dat)
                           smiles.entry  recorded.number
1  Cl.OC(CCCN1CCCCC1)(c1ccccc1)c1ccccc1          0.00398

###

settings: in n-pentanol, 283.15 K
Measured Parameter: solubility (mole fraction)

> print(dat)
                           smiles.entry  recorded.number
1  Cl.OC(CCCN1CCCCC1)(c1ccccc1)c1ccccc1         0.000359

###

details: in DMF, 323.15 K
Measured Parameter: solubility (mole fraction)

> print(dat)
                           smiles.entry          measured.parameter  recorded.number
1  Cl.OC(CCCN1CCCCC1)(c1ccccc1)c1ccccc1  solubility (mole fraction)          0.00923

###

details: in ethanol, 288.15 K
Measured Parameter: solubility (mole fraction)

> print(dat)
                           smiles.entry  recorded.number
1  Cl.OC(CCCN1CCCCC1)(c1ccccc1)c1ccccc1          0.00227

###

settings: in n-pentanol, 298.15 K
Measured Parameter: solubility (mole fraction)

> print(dat)
                           smiles.entry  recorded.number
1  Cl.OC(CCCN1CCCCC1)(c1ccccc1)c1ccccc1         0.000981

###

conditions: in DMF, 313.15 K
Measured Parameter: solubility (mole fraction)

> print(dat)
                           smiles.entry  recorded.number
1  Cl.OC(CCCN1CCCCC1)(c1ccccc1)c1ccccc1          0.00688

###

details: in DMF, 288.15 K
Measured Parameter: solubility (mole fraction)

> print(dat)
                           smiles.entry  recorded.number
1  Cl.OC(CCCN1CCCCC1)(c1ccccc1)c1ccccc1          0.00357

src = BigSolDB 2.1
